# Test system: TTK;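 also: KINOMEscan kinase panel screen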
# STUDY_CONDITIONS: concentration: 1 μM,replicates: in singlicate; n = 1
REPORTED_PROPERTY: %Inh (%)
// note: answer is a bare numeric in %

Would you please look over these solved cases?
GIVEN_SMILES | READING
Cc1n[nH]c2cc(Nc3ccnc(Nc4cccc(CN5CCOCC5)c4)n3)ccc12 | 37
COc1cccc(C2=C(Nc3cccc(Cl)c3)C(=O)NC2=O)c1 | 13
C[C@@H](Oc1cc(-n2cnc3cc(-c4ccncc4)ccc32)sc1C(N)=O)c1ccccc1Cl | 2

Please report the recorded %Inh for C[C@@H](Oc1cc(-n2cnc3cc(-c4cnn(C)c4)ccc32)sc1C(N)=O)c1ccccc1Cl . 25
